All values here come from patent US20230295310A1.

Biological target: T1, human CD3 expressed on cells (human, UniProt P07766 23-207; P04234 22-171; P09693 23-182)
T1 construct: whole, on cells; CD3 complex on Jurkat cells and on human primary T cells
T1 sequence (P07766 23-207, chain 1 of 3): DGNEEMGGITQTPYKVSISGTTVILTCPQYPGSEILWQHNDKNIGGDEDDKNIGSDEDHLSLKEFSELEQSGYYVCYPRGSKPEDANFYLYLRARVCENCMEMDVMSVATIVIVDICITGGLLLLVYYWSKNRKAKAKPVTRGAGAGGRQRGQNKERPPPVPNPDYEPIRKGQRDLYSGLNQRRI
T1 sequence (P04234 22-171, chain 2 of 3): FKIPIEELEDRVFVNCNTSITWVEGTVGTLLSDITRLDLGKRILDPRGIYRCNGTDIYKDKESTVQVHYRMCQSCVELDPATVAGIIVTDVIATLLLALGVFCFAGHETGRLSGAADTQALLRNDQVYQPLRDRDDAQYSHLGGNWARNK
T1 sequence (P09693 23-182, chain 3 of 3): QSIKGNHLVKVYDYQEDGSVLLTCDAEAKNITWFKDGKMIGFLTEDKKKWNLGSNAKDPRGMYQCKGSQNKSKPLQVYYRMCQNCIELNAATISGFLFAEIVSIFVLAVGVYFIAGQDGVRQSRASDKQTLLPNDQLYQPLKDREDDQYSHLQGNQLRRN
Assay: flow cytometry, 25 nM
Description: Purified antibodies were confirmed to bind CD3 expressed on cells using the CytoFLEX S or LX flow cytometers (Beckman Coulter). Antibodies were diluted to 25 nM in FACS buffer (PBS+2% FBS) and were incubated with CD3-expressing cells for 30 minutes at 4° C. […] The median fluorescence intensity of the binding signal for each antibody was normalized to the isotype control to obtain a fold over isotype value. An antibody with a fold over isotype (FOI) of ≥10 was considered to be positive for binding.
measurement_type: Human primary T Cell Binding (FOI)

{"binder": "mAb 52 (antibody, V domains shown) VH: QVQLVQSGAEVKKPGASVKVSCKASGYTFTSHDINWVRQATGQGLEWMGWLNPNSGKTGYAQKFQGRVTMARDTSMYTADMELSSLRFEDTAVYYCARVGHYDMWPGFFSFDYWGQGTLVTVSS VL: DIQMTQSPSSLSASVGDRIIITCRASQDIRNDLGWYQQKPGKAPKRLIYAASSLQSGVPSRFSGSRSGTEFTLTISSLHPEDFATYYCLQHRSYPYTFGQGTNLEIK", "measurement_type": "Human primary T Cell Binding (FOI)", "unit_name": "FOI", "value": 185}
{"binder": "mAb 102 (antibody, V domains shown) VH: QVQLVESGGGVVQPGRSLRLSCAASGFSFRSYGMHWVRQAPGKGLEWVSVISYDGGNKYYADSVKGRFTISRDNSKNTLFLQMKSLRAEDTALYYCAKGGGTYWRGLFEYWGQGTLVTVSS VL: DIQLTQSPSFLSASVGDRVTITCRASQGISSYLAWYQKKPGKAPKLLIYAASTLHSGVPSRFSGGGSGTAFTLTISSLQPEDFATYYCQQLNNYPFTFGPGTKVDIK", "measurement_type": "Human primary T Cell Binding (FOI)", "unit_name": "FOI", "value": 98.9}
{"binder": "mAb 44 (antibody, V domains shown) VH: QAQLVQSGSELKKPGASVKVSCKASGYTFTRHAMNWVRQAPGQGLEWMGWINTNTGNPTYAQGFTGRFVFSLDTSVSTAYLKISSLKAEDTAVYYCVREGDYDFWSGFFNFDYWGQGTLVTVSS VL: DIQMTQSPSSLSASVGDRVTITCRASQGIRNDLGWFQQKPGKAPTRLIYAASSLQSGVPSRFSGSGSGAEFTLTISSLQPEDFATYYCLQHNSYPRTFGQGTKVEIK", "measurement_type": "Human primary T Cell Binding (FOI)", "unit_name": "FOI", "value": 110}
